From: paper PMC5540273

Tested on: MAP4K4;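 also: KINOMEscan kinase panel screen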
Settings: concentration: 1 μM, replicates: in singlicate; n = 1
ATTRIBUTE_MEASURED: %Inh (%)
Write the value in % as a bare number.

Examples with answers:
{"MOLECULE": "Cn1ccc2ncnc(Oc3ccc(NC(=O)Nc4cccnc4)c(Cl)c3)c21", "%Inh, %": 0}
{"MOLECULE": "Cl.Fc1ccccc1COc1ccc(Nc2ncnc3ccc(-c4nnc(C(F)(F)F)o4)cc23)cc1Cl", "%Inh, %": 0}
{"MOLECULE": "O=C(NCCCN1CCCC1=O)c1cnc(NCc2cc(Cl)ccc2Cl)nc1NC1CCNCC1", "%Inh, %": 0}
{"MOLECULE": "Fc1cccc(COc2ccc(Nc3ncnc4cc[nH]c34)cc2Cl)c1", "%Inh, %": 21}
{"MOLECULE": "Cc1ccc(C)c(NC(=O)NCCNc2ccnc(Nc3ccc(F)cc3)n2)c1", "%Inh, %": 0}

Complete the entry with %Inh for CC(C)N1CCC(n2cnc(-c3ccc(F)cc3)c2-c2ccnc(N)n2)CC1 0

Complete the entry with %Inh for Cc1ccc(NC(=O)c2cccc(C#N)c2)cc1-c1ccc(C(=O)Nc2ccncc2)cc1 4
